Biological target: Nuclear receptor subfamily 1 group I member 3 (Homo sapiens) (UniProt Q14994)
Sequence (Q14994 whole entry, looked up): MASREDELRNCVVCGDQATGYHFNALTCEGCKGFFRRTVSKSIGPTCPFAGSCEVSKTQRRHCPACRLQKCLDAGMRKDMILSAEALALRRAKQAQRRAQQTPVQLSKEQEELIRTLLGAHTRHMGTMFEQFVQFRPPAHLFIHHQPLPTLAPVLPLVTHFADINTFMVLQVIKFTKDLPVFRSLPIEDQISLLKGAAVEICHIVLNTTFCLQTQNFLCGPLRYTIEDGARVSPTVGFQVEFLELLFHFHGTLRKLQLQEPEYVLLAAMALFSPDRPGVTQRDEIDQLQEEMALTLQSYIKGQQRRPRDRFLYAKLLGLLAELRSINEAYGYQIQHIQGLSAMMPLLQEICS
Assay: Primary qHTS for agonist of constitutive androstane receptor (CAR) against the NCATS DSHEA and TCM libraries (AID 1794839);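 for activation: HepG2 cells expressing human CAR with a CYP2B6 reporter plus PK11195 antagonist; luciferase reporter luminescence read with ONE-Glo; 0% is about no effect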
Settings: CAR agonist reporter cells, qHTS luminescence; CAR antagonist co-added at 0.75 µM unless noted; series mostly up to 40 µM
Records with an inconclusive call do not appear. Activity calls are given as the source filed them. Calls come from the whole dose curve; as a rule, active = well fitted activation curve with a large enough effect; inconclusive = small, poorly fitted or top-dose-only effect; inactive = flat fitted curve, though single readings scatter.
Classes used: label 1 = active, label 0 = inactive

{"Molecule": "COC1=C[C@@]23CCN(C)[C@H](Cc4ccc(OC)c(O)c42)C3=CC1=O", "Tgt": "Nuclear receptor subfamily 1 group I member 3 (Homo sapiens) (UniProt Q14994)", "Discrete label": "label 0"}
{"Molecule": "COc1cc2c(cc1O)C[C@H]1c3c(cc(OC)c(O)c3-2)CCN1C", "Tgt": "Nuclear receptor subfamily 1 group I member 3 (Homo sapiens) (UniProt Q14994)", "Discrete label": "label 1"}
{"Molecule": "C=CCc1ccc2c(c1)OCO2", "Tgt": "Nuclear receptor subfamily 1 group I member 3 (Homo sapiens) (UniProt Q14994)", "Discrete label": "label 0"}
{"Molecule": "COC(=O)C1=CO[C@@H](C)[C@@H]2CN3CC[C@@]4(C(=O)Nc5ccccc54)[C@@H]3CC12 (stereo partly drawn)", "Tgt": "Nuclear receptor subfamily 1 group I member 3 (Homo sapiens) (UniProt Q14994)", "Discrete label": "label 0"}
{"Molecule": "N#CC(O[C@@H]1O[C@H](CO[C@@H]2O[C@H](CO)[C@@H](O)[C@H](O)[C@H]2O)[C@@H](O)[C@H](O)[C@H]1O)c1ccccc1 (stereo partly drawn)", "Tgt": "Nuclear receptor subfamily 1 group I member 3 (Homo sapiens) (UniProt Q14994)", "Discrete label": "label 0"}
{"Molecule": "CCCCCCCCCCCCCCCCCCCC(=O)O", "Tgt": "Nuclear receptor subfamily 1 group I member 3 (Homo sapiens) (UniProt Q14994)", "Discrete label": "label 0"}
{"Molecule": "C=C[C@H]1CN2CC[C@@]3(C(=O)Nc4ccccc43)[C@@H]2C[C@@H]1/C(=C\\OC)C(=O)OC", "Tgt": "Nuclear receptor subfamily 1 group I member 3 (Homo sapiens) (UniProt Q14994)", "Discrete label": "label 0"}
{"Molecule": "C=C(C)[C@@H]1CCC(C)=C[C@H]1c1c(O)cc(CCCCC)cc1O", "Tgt": "Nuclear receptor subfamily 1 group I member 3 (Homo sapiens) (UniProt Q14994)", "Discrete label": "label 1"}
